System: Aeromonas hydrophila
Assay: MIC against Gram-negative bacteria: Aeromonas hydrophila
Format: cell-based
Settings: Aeromonas hydrophila; 5×10^5 CFU/mL; 10 h cultivation at 37° C.
TEST READOUT: MIC against A. hydrophila

INSERT INTO assay_data (substance, endpoint_value) VALUES
  ('PRT1415 (PRATCLDQCSGHGTFLPDTGLCSCDPSWTGHDCS; listed as Homo sapiens)', '25 µg/mL'),
  ('PRT1367 (YPACPENCSGHGECVRGVCQCHEDFMSEDCS; listed as Homo sapiens)', '50 µg/mL'),
  ('PRT1446 (FLSPCVDDCGPYGQCKLLRTHNYLYAACECKAGWRGWGCT; listed as Homo sapiens)', '25 µg/mL'),
  ('PRT1455 (DWDECVDSAEHDCSPAAWCINLEGSYTCQCRTTRDATPSRAGRACE; listed as Homo sapiens)', '25 µg/mL'),
  ('PRT1465 (CECDSLGTLPGTICDPISGQCLCVPNRQGRRCNQCQPGFYISPGNATGCLP; listed as Homo sapiens)', '50 µg/mL'),
  ('PRT1482 (LCSFGCGSGICIAPNVCSCQDGEQGATCP; listed as Homo sapiens)', '50 µg/mL'),
  ('PRT1374 (GVRQCPNDCSQHGVCQDGVCICWEGYVSEDC; listed as Homo sapiens)', '12.5 µg/mL'),
  ('PRT1395 (DCPRNCHGNGECVSGVCHCFPGFLGADCA; listed as Homo sapiens)', '100 µg/mL');
